Values were extracted from paper PMC8903829.

# PROCEDURE TEXT: Bioanalytical assessment of plasma and brain concentrations after mouse DC-MES assay
# Format: in vivo
# CONDITION SET: mouse, brain, oral, 10 mg/kg, Study17134, 10 mg/kg, WT mouse DC-MES acute; read-out: Mean [Brain]
REPORTED PROPERTY: concentration at 2 h (µM)
One number for each entry, in µM.

Which concentration at 2 h value is on record for NC(=O)N1c2ccccc2C=Cc2ccccc21 [carbamazepine, Carbamazepine, reference compound] ?
17.4

* * *

# PROCEDURE TEXT: Bioanalytical assessment of plasma and brain concentrations after 6 Hz assay
# Assay type: in vivo, mouse
# CONDITION SET: Scn8a^N1768D/+, mouse, plasma, oral, 3 mg/kg, Study15064, 3 mg/kg, SCN8A mouse 6HZ; read-out: Mean [Palsma]
REPORTED PROPERTY: concentration at 2 h
For clarity, give the value followed by its unit.

Suppose we examine the compound NC(=O)N1c2ccccc2C=Cc2ccccc21 [carbamazepine, Carbamazepine, reference compound] ; what concentration at 2 h value has been reported?
1140 nM

* * *

# PROCEDURE TEXT: Bioanalytical assessment of plasma and brain concentrations after mouse DC-MES assay
# Type: in vivo
# CONDITION SET: mouse, brain, po, 5 mg/kg, WT mice, 5 mg/kg PO every 12 hr, day 7, 2 h after 13th dose; read-out: Mean [Brain]
REPORTED PROPERTY: concentration at 2 h (nM)
Numbers only, in nM.

// returns reported concentration at 2 h for input Cc1cc(S(=O)(=O)Nc2cscn2)c(F)cc1N(C)[C@H]1CCN(Cc2ccccc2)C1 [NBI-921352]
37.7

* * *

# PROCEDURE TEXT: Bioanalytical assessment of plasma and brain concentrations after rat DC-MES assay
# Assay type: in vivo
# CONDITION SET: rat, brain, po, 10 mg/kg, sheet Figure 5G, 5H, 5I (rats), 10 mg/kg PO single dose, 2 hr; read-out: Mean [Brain]
REPORTED PROPERTY: concentration at 2 h (nM)
Answers are plain numbers, in nM.

GET /values?readout=concentration at 2 h&item= `Cc1cc(S(=O)(=O)Nc2cscn2)c(F)cc1N(C)[C@H]1CCN(Cc2ccccc2)C1`
161

* * *

# PROCEDURE TEXT: Bioanalytical assessment of plasma and brain concentrations after rat DC-MES assay
# Type: in vivo
# CONDITION SET: rat, in vivo, 2 mg/kg, Study18060, 2 mg/kg, Rat DC-MES; read-out: Mean [Brain]
REPORTED PROPERTY: concentration at 2 h (nM)
Give bare numbers, in nM.

Could you share which concentration at 2 h value was measured for COC[C@@H](NC(C)=O)C(=O)NCc1ccccc1 [lacosamide, Lacosamide, reference compound] ?
641

* * *

# PROCEDURE TEXT: Bioanalytical assessment of plasma and brain concentrations after mouse DC-MES assay
# Format: in vivo
# CONDITION SET: mouse, in vivo, 10 mg/kg, Study18003, 10 mg/kg, WT mouse DC-MES acute; read-out: Mean [Palsma]
# Description: Approximately 0.5 mL of blood was collected from each mouse at the end of the assay via cardiac puncture under deep anesthesia. The blood samples were collected in a syringe and transferred to tubes containing EDTA. Blood was stored at 4 °C until centrifuged within 30 min of collection. […] Extraction of plasma samples was carried out by protein precipitation using acetonitrile. […] The samples were analyzed by UHPLC-ESI-MS/MS as described below. […]
REPORTED PROPERTY: concentration at 2 h (µM)
Answers are plain numbers, in µM.

# get_value(readout='concentration at 2 h', item= COC[C@@H](NC(C)=O)C(=O)NCc1ccccc1 [lacosamide, Lacosamide, reference compound] )
9.52
